Tested on: HEK-293T
Test details: Multiplex assay against HEK293T
Format: toxicity, cell-based
Condition summary: human, 24 h, 10 µM, compound concentration 10 uM, replicate 1
Non-standard residues stand in square brackets, D forms with d. Residues, ends and D or L forms follow the SMILES beside them.
Parameter measured: Population Mitotic Cells (%)
The response must be a number in % with no trailing unit.

{"Compound": "C=CCN1C[C@H](C(=O)N(CCCN(C)C)C(=O)NCC)C[C@@H]2c3cccc4[nH]cc(c34)C[C@H]21 [CABERGOLINE]", "Unit text": "%", "Measured": 62}
{"Compound": "OCCCNc1cc(-c2ccnc(Nc3cccc(Cl)c3)n2)ccn1", "Unit text": "%", "Measured": 28}
{"Compound": "CN1CCC(C(=O)c2cccc(NC(=O)c3c(F)cc(F)cc3F)n2)CC1", "Unit text": "%", "Measured": 75}
{"Compound": "Cc1sc2c(c1C)C(c1ccc(Cl)cc1)=N[C@H](CC(=O)OC(C)(C)C)c1nnc(C)n1-2", "Unit text": "%", "Measured": 58}

Reported Population Mitotic Cells (%) ( C[C@@H]1CC(=O)Nc2cccc(-c3ccc4c(c3)c(-c3cnn(C)c3)nn4C)c2N1 ) = 56

Reported Population Mitotic Cells (%) ( Nc1nc(CC(=O)Nc2ccc(CCNC[C@H](O)c3ccccc3)cc2)cs1 [MIRABEGRON] ) = 68

Reported Population Mitotic Cells (%) ( CC(C)C[C@@H]1NC(=O)[C@@H](C(C)C)NC(=O)[C@@H]2CCCN2C(=O)[C@@H](CC(=O)O)NC(=O)[C@@H](Cc2c[nH]c3ccccc23)NC1=O [BQ-123] (cyclo(L[dW][dD]P[dV])) ) = 75

Reported Population Mitotic Cells (%) ( COc1cc2nc(N3CCN(C(=O)c4ccco4)CC3)nc(N)c2cc1OC.Cl [PRAZOSIN HYDROCHLORIDE] ) = 50

---

Reported Population Mitotic Cells (%) values for the following molecules.
Test system: U2OS
Test details: Multiplex assay against U2OS
Type: toxicity, cell-based
Condition summary: human, 48 h, 10 µM, compound concentration 10 uM, replicate 1
The response must be a number in % with no trailing unit.

Example molecules with recorded Population Mitotic Cells (%):
{"Molecule": "CN1C[C@H](C(=O)N[C@]2(C)O[C@@]3(O)[C@@H]4CCCN4C(=O)[C@H](Cc4ccccc4)N3C2=O)C[C@@H]2c3cccc4[nH]cc(c34)C[C@H]21.CS(=O)(=O)O [DIHYDROERGOTAMINE MESYLATE]", "Population Mitotic Cells (%)": 4}
{"Molecule": "COc1cc(Nc2ncc3c(n2)-c2ccc(Cl)cc2C(c2c(F)cccc2OC)=NC3)ccc1C(=O)O", "Population Mitotic Cells (%)": 11}
{"Molecule": "CN1CCC(C(=O)c2cccc(NC(=O)c3c(F)cc(F)cc3F)n2)CC1", "Population Mitotic Cells (%)": 14}
{"Molecule": "COCCCN1CCC(NC(=O)c2cc(Cl)c(N)c3c2OCC3)CC1 [PRUCALOPRIDE]", "Population Mitotic Cells (%)": 11}

Reported Population Mitotic Cells (%) ( COc1cc(C(=O)N2CC[C@@H](O)[C@@H](N)C2)cc2nc(-c3cc4ccccc4n3CC3CC3)n(C)c12.Cl ) = 11

Reported Population Mitotic Cells (%) ( Cc1c(Cc2ccc3ccccc3n2)c2cc(F)ccc2n1CC(=O)O ) = 0

Reported Population Mitotic Cells (%) ( N[C@](CC1c2ccccc2Oc2ccccc21)(C(=O)O)[C@H]1C[C@@H]1C(=O)O ) = 10

Reported Population Mitotic Cells (%) ( Cc1sc2c(c1C)C(c1ccc(Cl)cc1)=N[C@H](CC(=O)OC(C)(C)C)c1nnc(C)n1-2 ) = 13

Reported Population Mitotic Cells (%) ( CC(C)C[C@H](CO)Nc1nc(S[C@@H](C)c2ccccc2)nc2nc(N)sc12 ) = 9

Reported Population Mitotic Cells (%) ( S=C(NCCCc1c[nH]cn1)NCCCN(Cc1ccc(Cl)c(Cl)c1)c1ccc(Br)cn1 ) = 29

Reported Population Mitotic Cells (%) ( CN1CCN2c3ccccc3Cc3ccccc3C2C1.Cl (stereo unspecified) [MIANSERIN HYDROCHLORIDE] ) = 8

Reported Population Mitotic Cells (%) ( CCC(=O)OCC(=O)[C@@]1(OC(=O)CC)[C@@H](C)C[C@H]2[C@@H]3CCC4=CC(=O)C=C[C@]4(C)[C@@]3(Cl)[C@@H](O)C[C@@]21C [BECLOMETHASONE DIPROPIONATE] ) = 20
